Form field: log10 of IC50 (one value per entry).
Sequence of the target: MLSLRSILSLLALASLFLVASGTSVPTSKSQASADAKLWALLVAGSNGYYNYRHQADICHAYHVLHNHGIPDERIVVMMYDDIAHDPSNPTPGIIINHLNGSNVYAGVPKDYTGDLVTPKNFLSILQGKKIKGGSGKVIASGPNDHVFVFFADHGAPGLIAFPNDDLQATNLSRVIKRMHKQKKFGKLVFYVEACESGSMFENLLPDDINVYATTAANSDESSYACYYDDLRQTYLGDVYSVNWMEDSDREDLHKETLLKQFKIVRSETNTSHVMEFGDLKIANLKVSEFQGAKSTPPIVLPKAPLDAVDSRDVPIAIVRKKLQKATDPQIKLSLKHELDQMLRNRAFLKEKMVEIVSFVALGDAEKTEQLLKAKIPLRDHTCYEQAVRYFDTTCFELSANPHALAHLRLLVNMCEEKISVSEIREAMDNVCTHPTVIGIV
All values: log10 IC50 [nM].

Worked set:
>  <mol smiles>
CCN(CC)C(=O)C=CC(=O)N(CC(N)=O)NC(=O)[C@H](C)NC(=O)[C@H](C)NC(=O)OCc1ccccc1

>  <data value>
3.43

$$$$
>  <mol smiles>
C[C@H](NC(=O)OCc1ccccc1)C(=O)N[C@@H](C)C(=O)NN(CC(N)=O)C(=O)C=CC(=O)N1CCc2ccccc21

>  <data value>
1.26

$$$$
>  <mol smiles>
C[C@H](NC(=O)OCc1ccccc1)C(=O)N[C@@H](C)C(=O)NN(CC(N)=O)C(=O)C=CC(=O)N1CCCc2ccccc21

>  <data value>
0.60

$$$$
>  <mol smiles>
C[C@H](NC(=O)OCc1ccccc1)C(=O)N[C@@H](C)C(=O)NN(CC(N)=O)C(=O)C=CC(=O)N(Cc1ccccc1)Cc1ccccc1

>  <data value>
2.65

$$$$
>  <mol smiles>
C[C@H](NC(=O)OCc1ccccc1)C(=O)N[C@@H](C)C(=O)NN(CC(N)=O)C(=O)C=CC(=O)N(C)c1ccccc1

>  <data value>
0.26

$$$$

Identify measured log10 of IC50 associated with C[C@H](NC(=O)OCc1ccccc1)C(=O)N[C@@H](C)C(=O)NN(CC(N)=O)C(=O)C=CC(=O)Nc1ccccc1
1.00

Identify measured log10 of IC50 associated with COc1ccc(CN(Cc2ccccc2)C(=O)C=CC(=O)N(CC(N)=O)NC(=O)[C@H](C)NC(=O)[C@H](C)NC(=O)OCc2ccccc2)cc1
1.08

###

Form field: pIC50 (one value per entry).
Target: UniProt Q9NFY9
Sequence (Q9NFY9 whole entry): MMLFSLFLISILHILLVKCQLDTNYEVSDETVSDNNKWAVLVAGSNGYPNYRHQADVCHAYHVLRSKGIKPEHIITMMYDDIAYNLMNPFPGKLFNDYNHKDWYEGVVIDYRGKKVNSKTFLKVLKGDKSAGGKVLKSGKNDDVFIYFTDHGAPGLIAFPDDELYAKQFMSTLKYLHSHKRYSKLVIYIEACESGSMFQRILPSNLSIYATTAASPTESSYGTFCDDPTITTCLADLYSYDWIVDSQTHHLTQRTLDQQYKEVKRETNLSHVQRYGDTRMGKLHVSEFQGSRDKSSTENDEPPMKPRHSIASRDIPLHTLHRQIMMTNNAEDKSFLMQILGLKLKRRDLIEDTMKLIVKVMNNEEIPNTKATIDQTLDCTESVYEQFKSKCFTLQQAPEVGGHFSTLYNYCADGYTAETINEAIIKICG
Test: AE Enzyme Inhibition Assay
Conditions: 25 °C
Scale note: pIC50 = -log10(concentration in M).

Worked set:
>  <mol smiles>
C[C@H](NC(=O)OCc1ccccc1)C(=O)N[C@@H](C)C(=O)NN(CC(N)=O)C(=O)C=CC(=O)N1CCc2ccccc21

>  <assayed system>
UniProt Q9NFY9

>  <measured endpoint>
pIC50

>  <data value>
7.15

$$$$
>  <mol smiles>
C[C@H](NC(=O)OCc1ccccc1)C(=O)N[C@@H](C)C(=O)NN(CC(N)=O)C(=O)C=CC(=O)N(Cc1ccccc1)Cc1ccc(F)cc1

>  <assayed system>
UniProt Q9NFY9

>  <measured endpoint>
pIC50

>  <data value>
7.22

$$$$
>  <mol smiles>
C[C@H](NC(=O)OCc1ccccc1)C(=O)N[C@@H](C)C(=O)NN(CC(N)=O)C(=O)C=CC(=O)N1Cc2ccccc2C1

>  <assayed system>
UniProt Q9NFY9

>  <measured endpoint>
pIC50

>  <data value>
6.52

$$$$
>  <mol smiles>
C[C@H](NC(=O)OCc1ccccc1)C(=O)N[C@@H](C)C(=O)NN(CC(N)=O)C(=O)C=CC(=O)N(Cc1ccco1)Cc1ccco1

>  <assayed system>
UniProt Q9NFY9

>  <measured endpoint>
pIC50

>  <data value>
6.05

$$$$
>  <mol smiles>
C[C@H](NC(=O)OCc1ccccc1)C(=O)N[C@@H](C)C(=O)NN(CC(N)=O)C(=O)C=CC(=O)N(Cc1ccccc1)Cc1cccc2ccccc12

>  <assayed system>
UniProt Q9NFY9

>  <measured endpoint>
pIC50

>  <data value>
7.21

$$$$

Identify measured pIC50 associated with CCOC(=O)C=CC(=O)N(CC(N)=O)NC(=O)[C@H](C)NC(=O)[C@H](C)NC(=O)CCCC[C@@H]1SC[C@@H]2NC(=O)N[C@@H]21
8.00

Identify measured pIC50 associated with C[C@H](NC(=O)OCc1ccccc1)C(=O)N[C@@H](C)C(=O)NN(CC(N)=O)C(=O)C=CC(=O)N(Cc1ccccc1)Cc1ccc2ccccc2c1
7.15

###

Molecular target: Clan CD, family C13, asparaginyl endopeptidase-like cysteine peptidase (Trichomonas vaginalis (strain ATCC PRA-98 / G3))
Sequence (A2DYT2 whole entry): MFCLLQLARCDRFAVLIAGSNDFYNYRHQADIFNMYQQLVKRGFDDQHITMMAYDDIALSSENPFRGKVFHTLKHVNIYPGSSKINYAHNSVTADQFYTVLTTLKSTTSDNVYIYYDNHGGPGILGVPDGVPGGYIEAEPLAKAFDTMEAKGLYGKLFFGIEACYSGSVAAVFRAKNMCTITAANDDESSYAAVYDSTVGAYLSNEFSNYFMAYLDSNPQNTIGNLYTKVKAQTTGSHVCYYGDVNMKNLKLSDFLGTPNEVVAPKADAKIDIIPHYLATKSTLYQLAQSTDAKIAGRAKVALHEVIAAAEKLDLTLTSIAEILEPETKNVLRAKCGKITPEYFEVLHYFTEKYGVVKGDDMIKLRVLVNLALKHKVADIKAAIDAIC
Assay: AE Enzyme Inhibition Assay
Settings: 25 °C
measured endpoint: IC50 (nM)
Record the value in nM, omitting the unit from your answer.

Worked set:
>  <compound>
C[C@H](NC(=O)OCc1ccccc1)C(=O)N[C@@H](C)C(=O)NN(CC(N)=O)C(=O)C=CC(=O)N1CC=C(c2ccccc2)CC1

>  <IC50 / nM>
10

$$$$
>  <compound>
C[C@H](NC(=O)OCc1ccccc1)C(=O)N[C@@H](C)C(=O)NN(CC(N)=O)C(=O)C=CC(=O)N1CCc2ccccc2C1

>  <IC50 / nM>
10

$$$$

For the next question, use this compound.
Identify measured IC50 associated with C[C@H](NC(=O)OCc1ccccc1)C(=O)N[C@@H](C)C(=O)NN(CC(N)=O)C(=O)C=CC(=O)N(C)C(Cc1ccccc1)C(=O)N(C)CCc1ccccc1 (stereo partly drawn)
80
